Tested on: Acinetobacter baumannii
Assay: Antibacterial activity against Acinetobacter baumannii ATCC 19606 after 18 hrs by 2 fold serial dilution method
Type: functional
Conditions: ATCC 19606, 18 h
Bridge positions count the residues as written; N and C are the ends. Square brackets hold non-standard residues; d marks the D form. Peptide text beside a SMILES is read from it. * marks the point of attachment. ξ: configuration not given here. ξGly(octyl) = CCCCCCCCC(N)C(=O)O; Octanoyl = CCCCCCCC(=O)*; Dab = NCC[C@H](N)C(=O)O
endpoint: MIC (µg/mL)
Value expressed in µg/mL; do not type the unit.

Input line: Record request: MIC value, item CCCCCCCCC1NC(=O)[C@@H](Cc2ccccc2)NC(=O)[C@H](CCN)NC(=O)[C@@H](NC(=O)[C@H](CCN)NC(=O)[C@@H](NC(=O)[C@H](CCN)NC(=O)CCCCCCC)[C@@H](C)O)CCNC(=O)[C@H]([C@@H](C)O)NC(=O)[C@H](CCN)NC(=O)[C@H](CCN)NC1=O (stereo partly specified) (Octanoyl-[Dab]T[Dab][Dab][Dab][dF][ξGly(octyl)][Dab][Dab]T; lactam 4-C)
Output line: 1

###

Would you kindly list MIC for each of these compounds?
Tested on: Pseudomonas aeruginosa
Test: Antibacterial activity against clinical isolate polymyxin resistant Pseudomonas aeruginosa FADDI-PA070 after 18 hrs by 2 fold serial dilution method
Format: functional
Conditions: FADDI-PA070, 18 h
Bridge positions count the residues as written; N and C are the ends. Square brackets hold non-standard residues; d marks the D form. Peptide text beside a SMILES is read from it. * marks the point of attachment. ξ: configuration not given here. ξGly(octyl) = CCCCCCCCC(N)C(=O)O; Octanoyl = CCCCCCCC(=O)*; Dab = NCC[C@H](N)C(=O)O
Value expressed in µg/mL; do not type the unit.

Input line: Record request: MIC value, item "CCCCCCCC(=O)N[C@@H](CCN)C(=O)N[C@H](C(=O)N[C@@H](CCN)C(=O)N[C@H]1CCNC(=O)[C@H]([C@@H](C)O)NC(=O)[C@H](CCN)NC(=O)[C@H](CCCNC(=N)N)NC(=O)[C@H](CC(C)C)NC(=O)[C@@H](Cc2ccccc2)NC(=O)[C@H](CCN)NC1=O)[C@@H](C)O"
Output line: 32

Input line: What about CCCCCCCCC1NC(=O)[C@@H](Cc2ccccc2)NC(=O)[C@H](CCN)NC(=O)[C@@H](NC(=O)[C@H](CCN)NC(=O)[C@@H](NC(=O)[C@H](CCN)NC(=O)CCCCCCC)[C@@H](C)O)CCNC(=O)[C@H]([C@@H](C)O)NC(=O)[C@H](CCN)NC(=O)[C@H](CCN)NC1=O (stereo partly drawn) (Octanoyl-[Dab]T[Dab][Dab][Dab][dF][ξGly(octyl)][Dab][Dab]T; lactam 4-C) ?
Output line: 16

###

Tested on: Klebsiella pneumoniae
Assay: Antibacterial activity against Klebsiella pneumoniae ATCC BAA-2146 expressing NDM-1 after 18 hrs by 2 fold serial dilution method
Format: functional
Details: ATCC BAA-2146, 18 h
Bridge positions count the residues as written; N and C are the ends. Square brackets hold non-standard residues; d marks the D form. Peptide text beside a SMILES is read from it. * marks the point of attachment. ξ: configuration not given here. ξGly(octyl) = CCCCCCCCC(N)C(=O)O; Octanoyl = CCCCCCCC(=O)*; Dab = NCC[C@H](N)C(=O)O
endpoint: MIC (µg/mL)
Value expressed in µg/mL; do not type the unit.

Input line: Record request: MIC value, item CCCCCCCCC1NC(=O)[C@@H](Cc2ccccc2)NC(=O)[C@H](CCN)NC(=O)[C@@H](NC(=O)[C@H](CCN)NC(=O)[C@@H](NC(=O)[C@H](CCN)NC(=O)CCCCCCC)[C@@H](C)O)CCNC(=O)[C@H]([C@@H](C)O)NC(=O)[C@H](CCN)NC(=O)[C@H](CCN)NC1=O (stereo not given in full) (Octanoyl-[Dab]T[Dab][Dab][Dab][dF][ξGly(octyl)][Dab][Dab]T; lactam 4-C)
Output line: 1

Input line: What about CCCCCCCC(=O)N[C@H](C(=O)N[C@@H](CCN)C(=O)N[C@H]1CCNC(=O)[C@H]([C@@H](C)O)NC(=O)[C@H](CCN)NC(=O)[C@H](CCN)NC(=O)[C@H](CC(C)C)NC(=O)[C@@H](Cc2ccccc2)NC(=O)[C@H](CCN)NC1=O)[C@@H](C)O [Octanoyl Polymixin B nonapeptide] (Octanoyl-T[Dab][Dab][Dab][dF]L[Dab][Dab]T; lactam 3-C) ?
Output line: 2

Input line: What about CCCCCCCC(=O)N[C@@H](CCN)C(=O)N[C@H](C(=O)N[C@@H](CCN)C(=O)N[C@H]1CCNC(=O)[C@H]([C@@H](C)O)NC(=O)[C@H](CCNC(=O)[C@@H](N)CCCNC(=N)N)NC(=O)[C@H](CCN)NC(=O)[C@H](CC(C)C)NC(=O)[C@@H](Cc2ccccc2)NC(=O)[C@H](CCN)NC1=O)[C@@H](C)O (Octanoyl-[Dab]T[Dab][Dab][Dab][dF]L[Dab][Dab](Arg)T; lactam 4-C) ?
Output line: 8

Input line: What about CCCCCCCC(=O)N[C@@H](CCN)C(=O)N[C@H](C(=O)N[C@@H](CCN)C(=O)N[C@H]1CCNC(=O)[C@H]([C@@H](C)O)NC(=O)[C@H](CCN)NC(=O)[C@H](CCN)NC(=O)[C@H](CC(C)C)NC(=O)[C@@H](Cc2ccccc2)NC(=O)[C@H](CCNC(=O)[C@@H](N)CCCNC(=N)N)NC1=O)[C@@H](C)O (Octanoyl-[Dab]T[Dab][Dab][Dab](Arg)[dF]L[Dab][Dab]T; lactam 4-C) ?
Output line: 16

###

System: Klebsiella pneumoniae
Assay: Antibacterial activity against Klebsiella pneumoniae ATCC BAA-2146 expressing NDM-1 after 18 hrs by 2 fold serial dilution method
Format: functional
Conditions: ATCC BAA-2146, 18 h
Bridge positions count the residues as written; N and C are the ends. Square brackets hold non-standard residues; d marks the D form. Peptide text beside a SMILES is read from it. * marks the point of attachment. Octanoyl = CCCCCCCC(=O)*; Dab = NCC[C@H](N)C(=O)O
endpoint: MIC
Report field: quantity (unit follows the number).

Input line: Record request: MIC value, item CCCCCCCC(=O)NCC(=O)N[C@@H](CCN)C(=O)N[C@H](C(=O)N[C@H]1CCNC(=O)[C@H]([C@@H](C)O)NC(=O)[C@H](CCN)NC(=O)[C@H](CCN)NC(=O)[C@H](CC(C)C)NC(=O)[C@@H](Cc2ccccc2)NC(=O)[C@H](CCN)NC1=O)[C@@H](C)O (Octanoyl-G[Dab]T[Dab][Dab][dF]L[Dab][Dab]T; lactam 4-C)
Output line: 16 µg/mL

###

Tested on: Pseudomonas aeruginosa
Assay: Antibacterial activity against clinical isolate polymyxin resistant Pseudomonas aeruginosa FADDI-PA070 after 18 hrs by 2 fold serial dilution method
Format: functional
Conditions: FADDI-PA070, 18 h
Bridge positions count the residues as written; N and C are the ends. Square brackets hold non-standard residues; d marks the D form. Peptide text beside a SMILES is read from it. * marks the point of attachment. ξ: configuration not given here. ξGly(octyl) = CCCCCCCCC(N)C(=O)O; dDab = NCC[C@@H](N)C(=O)O; hSer = N[C@@H](CCO)C(=O)O; Octanoyl = CCCCCCCC(=O)*; Dab = NCC[C@H](N)C(=O)O
endpoint: MIC

Input line: Record request: MIC value, item CCCCCCCC(=O)N[C@@H](CCN)C(=O)N[C@H](C(=O)N[C@@H](CCN)C(=O)N[C@H]1CCNC(=O)[C@H]([C@@H](C)O)NC(=O)[C@H](CCN)NC(=O)[C@H](CCO)NC(=O)[C@H](CC(C)C)NC(=O)[C@@H](Cc2ccccc2)NC(=O)[C@H](CCN)NC1=O)[C@@H](C)O (Octanoyl-[Dab]T[Dab][Dab][Dab][dF]L[hSer][Dab]T; lactam 4-C)
Output line: > 32 µg/mL

Input line: What about CCCCCCCC(=O)N[C@@H](CCN)C(=O)N[C@H](C(=O)N[C@H](CCN)C(=O)N[C@H]1CCNC(=O)[C@H]([C@@H](C)O)NC(=O)[C@H](CCN)NC(=O)[C@H](CCN)NC(=O)[C@H](CC(C)C)NC(=O)[C@@H](Cc2ccccc2)NC(=O)[C@H](CCN)NC1=O)[C@@H](C)O (Octanoyl-[Dab]T[dDab][Dab][Dab][dF]L[Dab][Dab]T; lactam 4-C) ?
Output line: > 32 µg/mL

Input line: What about CCCCCCCCC1NC(=O)[C@H](CCN)NC(=O)[C@@H](NC(=O)[C@H](CCN)NC(=O)[C@@H](NC(=O)[C@H](CCN)NC(=O)CCCCCCC)[C@@H](C)O)CCNC(=O)[C@H]([C@@H](C)O)NC(=O)[C@H](CCN)NC(=O)[C@H](CCN)NC(=O)[C@H](CC(C)C)NC1=O (stereo partly drawn) (Octanoyl-[Dab]T[Dab][Dab][Dab][ξGly(octyl)]L[Dab][Dab]T; lactam 4-C) ?
Output line: 4 µg/mL
